Below: a set of entries, each annotated with reported protein stability index.
B1: FBF1 (parent)
chain: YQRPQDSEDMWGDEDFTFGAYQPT

Variants of: B1
Experiment: protein stability index of a GFP-peptide fusion (GPS, HEK-293T) (PSI 1-6); higher = more stable;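 further: lentivirally expressed fusions sorted by FACS into six bins by GFP to DsRed ratio, PSI derived from sequencing read proportions per bin multiplied by bin number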
Conditions: c terminus: a fixed tail appended
Just the number, please, no unit attached.

Example cases with answers are listed next.
sequence_content=YQRPQDSEDMWGDKDFTFGAYQPT experimental_result=1.46
sequence_content=YQRPQDSEDMWGDEDFTFGKYQPT experimental_result=2.94
sequence_content=YQRPFDSEDMWGDEDFTFGAYQPT experimental_result=2.64
sequence_content=YQRPQDSEDMWGDEDFTFQAYQPT experimental_result=2.78
sequence_content=YQRPQMSEDMWGDEDFTFGAYQPT experimental_result=2.32

Exercise: Which value of protein stability index has been reported for "YQRPCDSEDMWGDEDFTFGAYQPT" in the records?
Solution: 2.26

Exercise: Param item: "YQRPQDSEDMWGDEDFNFGAYQPT"
Solution: 3.04

Exercise: Input "WQRPQDSEDMWGDEDFTFGAYQPT"
Solution: 3.93

Exercise: Continue with "YQRPQDWEDMWGDEDFTFGAYQPT"
Solution: 1.73

Exercise: Next up: "YQRPMDSEDMWGDEDFTFGAYQPT"
Solution: 2.44

Exercise: Entry to check: "YQRPQDSEDMWGDEDFYFGAYQPT"
Solution: 2.1

Exercise: Also "YQRYQDSEDMWGDEDFTFGAYQPT" , if possible.
Solution: 3.04

Exercise: Consider next the variant "YQRPQDSEDMWGDEPFTFGAYQPT" in the same way.
Solution: 2.45

Exercise: Another variant to look at: "YQRPQDSEDMWGGEDFTFGAYQPT"
Solution: 2.28

Exercise: Follow-up item: "HQRPQDSEDMWGDEDFTFGAYQPT"
Solution: 4.76

Exercise: Now try "YQRPQDSEDMWGDSDFTFGAYQPT" .
Solution: 2.43
